- TARGET_UNDER_TEST: hCA VII (Homo sapiens, UniProt P43166)
- Sequence (P43166 whole entry): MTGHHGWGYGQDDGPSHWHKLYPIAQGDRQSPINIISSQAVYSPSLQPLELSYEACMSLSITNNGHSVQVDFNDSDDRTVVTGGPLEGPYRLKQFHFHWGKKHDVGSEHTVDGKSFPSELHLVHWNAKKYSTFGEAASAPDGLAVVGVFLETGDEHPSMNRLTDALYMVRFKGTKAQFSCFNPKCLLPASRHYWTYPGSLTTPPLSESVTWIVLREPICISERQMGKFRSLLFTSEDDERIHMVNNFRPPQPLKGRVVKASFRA
READOUT: pKi
Please treat pKi as minus the base-10 logarithm of the molar concentration.

INPUT: Param request: pKi | system hCA VII (Homo sapiens, UniProt P43166) | item "On1ccccc1=S"
OUTPUT: 5.44

INPUT: # assay system hCA VII (Homo sapiens, UniProt P43166): give pKi of "Cc1occc(=S)c1O"
OUTPUT: 5.44

Further cases:
INPUT: Param request: pKi | system hCA VII (Homo sapiens, UniProt P43166) | item "Cc1occc(=O)c1O"
OUTPUT: 5.47

---

Target or system hCA VA (Homo sapiens, UniProt P35218); recorded quantity Ki.
Output spec: scalar in µM, unitless text.

INPUT: Fill in Ki for "Cc1occc(=S)c1O" tested with hCA VA (Homo sapiens, UniProt P35218).
Sequence (P35218 39-305): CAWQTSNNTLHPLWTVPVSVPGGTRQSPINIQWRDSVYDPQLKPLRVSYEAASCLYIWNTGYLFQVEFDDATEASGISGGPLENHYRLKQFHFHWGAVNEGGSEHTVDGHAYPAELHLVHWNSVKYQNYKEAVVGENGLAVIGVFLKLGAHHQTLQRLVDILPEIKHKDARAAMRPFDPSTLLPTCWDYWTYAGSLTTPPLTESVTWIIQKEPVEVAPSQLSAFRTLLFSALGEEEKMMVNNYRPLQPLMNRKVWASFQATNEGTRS
OUTPUT: 4.2

INPUT: Report Ki under test system hCA VA (Homo sapiens, UniProt P35218) for "Cc1occc(=O)c1O" .
OUTPUT: 4.6

Others:
INPUT: System hCA VA (Homo sapiens, UniProt P35218). Read-out Ki. Item "On1ccccc1=S" . Report value.
OUTPUT: 4

---

// pKi collected for UniProt:P00918
Please express pKi as -log10 of the molar concentration.

INPUT: Complete the entry with pKi for Cc1occc(=S)c1O [compound 2, thiomaltol]
OUTPUT: 5.40

Next:
INPUT: Complete the entry with pKi for Cc1occc(=O)c1O [compound 1, maltol]
OUTPUT: 5.44

INPUT: Answer with the recorded pKi of On1ccccc1=S [compound 4, 1,2-HOPTO] only.
OUTPUT: 5.39
